The origin of these recorded values is the NIST ThermoML archive (doi:10.1016/j.jct.2015.02.011).

As shown below, each of these compounds has a reported speed of sound value.
- Protocol Conditions: 298.15 K; 100.7 kPa; Liquid; Frequency=3 MHz; Sing-around technique in a fixed-path interferometer
Just the number please, in m/s, no unit attached.

Worked cases, speed of sound given:
{"columns": ["Compound", "speed of sound / m/s"],
 "data": [
  ["C1CCOC1 [tetrahydrofuran]", 1280.8],
  ["CCCCCCn1cc[n+](C)c1.F[P-](F)(F)(F)(F)F [1-hexyl-3-methylimidazolium hexafluorophosphate]", 1424.3],
  ["CCCCn1cc[n+](C)c1.F[P-](F)(F)(F)(F)F [1-butyl-3-methylimidazolium hexafluorophosphate]", 1442.3]
]}

Fill blank: measured speed of sound of the compound CCCCCCCC[n+]1ccn(C)c1.F[P-](F)(F)(F)(F)F [1-octyl-3-methylimidazolium hexafluorophosphate] is ____. 1406.5
